Each entry below carries its recorded pStat3 HTRF (nM) IC50.
Biological target: T1, IL-23R (human, UniProt Q5VWK5 24-629)
T1 sequence (looked up): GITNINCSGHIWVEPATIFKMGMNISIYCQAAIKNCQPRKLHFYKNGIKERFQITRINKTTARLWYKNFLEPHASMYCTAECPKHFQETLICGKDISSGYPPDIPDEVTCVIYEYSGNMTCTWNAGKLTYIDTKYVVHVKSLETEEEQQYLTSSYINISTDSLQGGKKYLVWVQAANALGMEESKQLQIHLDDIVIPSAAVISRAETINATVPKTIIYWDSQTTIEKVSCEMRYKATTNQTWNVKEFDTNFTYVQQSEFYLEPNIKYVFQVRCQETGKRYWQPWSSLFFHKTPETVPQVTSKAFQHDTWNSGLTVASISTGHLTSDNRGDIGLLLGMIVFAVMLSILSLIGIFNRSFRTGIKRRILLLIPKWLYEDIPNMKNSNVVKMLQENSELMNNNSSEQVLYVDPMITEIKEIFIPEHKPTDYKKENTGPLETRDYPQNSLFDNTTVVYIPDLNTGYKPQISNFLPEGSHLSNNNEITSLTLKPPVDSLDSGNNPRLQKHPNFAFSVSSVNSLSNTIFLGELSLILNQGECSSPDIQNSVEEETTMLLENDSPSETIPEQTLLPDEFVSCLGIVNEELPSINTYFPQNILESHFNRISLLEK
Test: cell-based or functional assay
Bridge positions count the residues as written; N and C are the ends. Square brackets hold non-standard residues; d marks the D form. Trp(7-Me) = Cc1cccc2c(C[C@H](N)C(=O)O)c[nH]c12; 2Nal = N[C@@H](Cc1ccc2ccccc2c1)C(=O)O; AEF = NCCOc1ccc(C[C@H](N)C(=O)O)cc1; Cit = NC(=O)NCCC[C@H](N)C(=O)O; Pen = CC(C)(S)[C@H](N)C(=O)O; αMeK = C[C@](N)(CCCCN)C(=O)O; Aib = CC(C)(N)C(=O)O; βAla = NCCC(=O)O
assay endpoint: pStat3 HTRF (nM) IC50

1) XNTXQXXXXGPX (Ac-[Pen]-NT-[W(7-Me)]-Q-[Pen]-Phe[4-(2-aminoethoxy)]-[2-Nal]-[a-MeLeu]-G-[(D)Pro]-[bA]-NH2; Pen-Pen disulfide) [SEQ ID NO: 220]
> 100 nM
2) XNTXQXXXXKXX (Ac-[Pen]-NT-[W(7-Me)]-Q-[Pen]-Phe[4-(2-aminoethoxy)]-[2-Nal]-[a-MeLeu]-[Lys(Ac)]-[Sarc]-[bA]-NH2; Pen-Pen disulfide) [SEQ ID NO: 224]
> 100 nM
3) Ac-[Pen]NT[Trp(7-Me)][Cit][Pen][AEF][2Nal][αMeK]K(Ac)N[dS]-NH2 (disulfide 1-6 (inferred)) [SEQ ID NO: 261]
< 1 nM
4) XNTXKXXXXKNX (Ac-[Pen]-NT-[W(7-Me)]-[Lys(Ac)]-[Pen]-Phe[4-(2-aminoethoxy)]-[2-Nal]-[a-MeLys]-[Lys(Ac)]-N-[bA]-NH2; Pen-Pen disulfide) [SEQ ID NO: 242]
< 1 nM
5) Ac-[Pen]NT[Trp(7-Me)][Cit][Pen][AEF][2Nal][αMeK]K(Ac)N[Aib][βAla]-NH2 (disulfide 1-6; SMILES CC(=O)NCCCC[C@H](NC(=O)[C@](C)(CCCCN)NC(=O)[C@H](Cc1ccc2ccccc2c1)NC(=O)[C@H](Cc1ccc(OCCN)cc1)NC(=O)[C@H]1NC(=O)[C@H](CCCNC(N)=O)NC(=O)[C@H](Cc2c[nH]c3c(C)cccc23)NC(=O)[C@H]([C@@H](C)O)NC(=O)[C@H](CC(N)=O)NC(=O)[C@@H](NC(C)=O)C(C)(C)SSC1(C)C)C(=O)N[C@@H](CC(N)=O)C(=O)NC(C)(C)C(=O)NCCC(N)=O) [SEQ ID NO: 340]
< 1 nM
6) Ac-[Pen]NT[Trp(7-Me)][Cit][Pen][AEF][2Nal][αMeK]K(Ac)N[Aib]G-NH2 (disulfide 1-6; SMILES CC(=O)NCCCC[C@H](NC(=O)[C@](C)(CCCCN)NC(=O)[C@H](Cc1ccc2ccccc2c1)NC(=O)[C@H](Cc1ccc(OCCN)cc1)NC(=O)[C@H]1NC(=O)[C@H](CCCNC(N)=O)NC(=O)[C@H](Cc2c[nH]c3c(C)cccc23)NC(=O)[C@H]([C@@H](C)O)NC(=O)[C@H](CC(N)=O)NC(=O)[C@@H](NC(C)=O)C(C)(C)SSC1(C)C)C(=O)N[C@@H](CC(N)=O)C(=O)NC(C)(C)C(=O)NCC(N)=O) [SEQ ID NO: 341]
< 1 nM
7) Ac-[Pen]NT[Trp(2,5,7-tritBu)]Q[Pen][AEF][2Nal][αMeK]K(Ac)N[βAla]-NH2 (disulfide 1-6) [SEQ ID NO: 233]
> 100 nM

Source of measurements: patent US20260116921A1
